Target: T1, 5-domain TAT10772 (human)
T1 construct: Recombinant portion of the extracellular domain, expressed in CHO cells; also called 5-mucin domain
T1 chain: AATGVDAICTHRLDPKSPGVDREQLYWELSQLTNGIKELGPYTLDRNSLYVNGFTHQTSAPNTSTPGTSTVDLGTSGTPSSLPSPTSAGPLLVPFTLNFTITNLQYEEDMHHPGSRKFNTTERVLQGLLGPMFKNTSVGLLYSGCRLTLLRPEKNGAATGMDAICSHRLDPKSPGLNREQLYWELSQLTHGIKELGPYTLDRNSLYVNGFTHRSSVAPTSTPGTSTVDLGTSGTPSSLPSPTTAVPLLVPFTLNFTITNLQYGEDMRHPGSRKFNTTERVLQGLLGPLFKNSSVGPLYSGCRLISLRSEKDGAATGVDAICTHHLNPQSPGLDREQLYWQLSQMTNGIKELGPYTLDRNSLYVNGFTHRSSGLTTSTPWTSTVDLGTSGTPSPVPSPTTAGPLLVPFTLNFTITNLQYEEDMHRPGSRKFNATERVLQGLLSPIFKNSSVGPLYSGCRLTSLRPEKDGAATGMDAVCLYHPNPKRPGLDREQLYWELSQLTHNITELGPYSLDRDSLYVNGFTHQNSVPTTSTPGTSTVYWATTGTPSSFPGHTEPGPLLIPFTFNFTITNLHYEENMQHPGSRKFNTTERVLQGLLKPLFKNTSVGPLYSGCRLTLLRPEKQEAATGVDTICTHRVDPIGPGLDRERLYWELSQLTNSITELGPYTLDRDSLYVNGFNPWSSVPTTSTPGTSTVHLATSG
Experiment: ELISA, IgG, 5′-domain TAT10772
Recorded Kd for the following binders
Measure: Kd (nM)

Binder | Assay Result
3A5v7 (SEQ ID NO: 204) (antibody, V domains shown, Humanized IgG) VH: EVQLVESGGGLVQPGGSLRLSCAASGYSITNDYAWNWVRQAPGKGLEWVGYINYSGYTTYNPSLKSRFTISRDTSKNTLYLQMNSLRAEDTAVYYCARWKSGLDSWGQGTLVTVSS VL: DIQMTQSPSSLSASVGDRVTITCKASDLIHNWLAWYQQKPGKAPKLLIYGATSLETGVPSRFSGSGSGTDFTLTISSLQPEDFATYYCQQYWTTPFTFGQGTKVEIKR | 3.3
3A5v3 (SEQ ID NO: 200) (antibody, V domains shown, Humanized IgG) VH: EVQLVESGGGLVQPGGSLRLSCAASGYSITNDYAWNWVRQAPGKGLEWVGYINYSGYTTYNPSLKSRFTISRDTSKNTFYLQMNSLRAEDTAVYYCARWASGLSYWGQGTLVTVSS VL: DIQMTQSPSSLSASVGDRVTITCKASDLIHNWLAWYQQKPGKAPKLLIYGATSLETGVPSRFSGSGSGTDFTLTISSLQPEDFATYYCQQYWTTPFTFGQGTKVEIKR | 1.6
3A5v8 (SEQ ID NO: 205) (antibody, V domains shown, Humanized IgG) VH: EVQLVESGGGLVQPGGSLRLSCAASGYSITNDYAWNWVRQAPGKGLEWVGYINYSGYTTYNPSLKSRFTISRDTSKNTLYLQMNSLRAEDTAVYYCARWTSGLDSWGQGTLVTVSS VL: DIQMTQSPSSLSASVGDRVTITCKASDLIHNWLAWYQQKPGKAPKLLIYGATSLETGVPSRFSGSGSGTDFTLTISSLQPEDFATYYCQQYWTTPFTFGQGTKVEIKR | 2.6
